Quick reference for DPP4 activity in library screen, Exp 2 among some compounds
- tested.on: DPP4 (Homo sapiens)
- Sequence (P27487 whole entry): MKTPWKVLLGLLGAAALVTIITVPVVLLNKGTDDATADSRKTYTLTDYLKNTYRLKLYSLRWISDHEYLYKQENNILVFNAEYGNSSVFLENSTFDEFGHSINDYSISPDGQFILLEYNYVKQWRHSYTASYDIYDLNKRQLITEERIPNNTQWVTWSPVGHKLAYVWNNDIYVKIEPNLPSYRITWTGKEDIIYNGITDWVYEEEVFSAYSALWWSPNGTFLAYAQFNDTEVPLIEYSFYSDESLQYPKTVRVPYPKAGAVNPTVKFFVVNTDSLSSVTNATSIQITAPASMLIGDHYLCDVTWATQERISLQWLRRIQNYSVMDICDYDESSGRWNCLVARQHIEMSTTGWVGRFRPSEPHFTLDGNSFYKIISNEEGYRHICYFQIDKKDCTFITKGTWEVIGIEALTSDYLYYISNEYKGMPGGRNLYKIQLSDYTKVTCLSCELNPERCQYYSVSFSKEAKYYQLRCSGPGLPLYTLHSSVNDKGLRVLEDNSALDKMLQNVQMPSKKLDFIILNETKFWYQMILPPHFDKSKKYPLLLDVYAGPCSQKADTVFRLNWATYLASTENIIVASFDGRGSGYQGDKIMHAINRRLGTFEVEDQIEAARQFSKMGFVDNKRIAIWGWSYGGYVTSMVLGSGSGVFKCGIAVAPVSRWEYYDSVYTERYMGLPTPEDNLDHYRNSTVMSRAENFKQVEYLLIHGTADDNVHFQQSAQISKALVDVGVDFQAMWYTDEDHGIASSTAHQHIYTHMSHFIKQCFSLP
- experiment.summary: DPP4 activity assay (DPP4 inhibitor screening assay kit, Cayman);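 note: fluorescence read at excitation 360 nm and emission 460 nm after the enzyme reaction ran 30 min at 37 °C in a 96-well plate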
- Type: biochemical
- Parameters: purchased Cayman Chemical, Ann Arbor, MI, USA
- condition.parameters: 10 µM; control mean 100.0; Figure 1A raw data
quantity.measured: DPP4 activity in library screen, Exp 2

COC12c3c(C)cc(O)c4c(=O)occ(c34)C(=O)C1C13COC(=O)c4c(O)cc(C)c(c41)C(=O)C2C3OC(C)=O (stereo not shown) [duclauxin] ... 99.5
CC1(C)[C@@H](O[C@H]2O[C@H](C(=O)O)[C@@H](O)[C@H](O)[C@H]2O[C@@H]2O[C@H](C(=O)O)[C@@H](O)[C@H](O)[C@H]2O)CC[C@]2(C)[C@H]3C(=O)C=C4[C@@H]5C[C@@](C)(C(=O)O)CC[C@]5(C)CC[C@@]4(C)[C@]3(C)CC[C@@H]12 [Ammonium Glycyrrhizinate] ... 106.3
C[C@@H]1O[C@@H](O[C@H]2[C@H](Oc3cc(O)c(C(=O)CCc4ccc(O)cc4)c(O)c3)O[C@H](CO)[C@@H](O)[C@@H]2O)[C@H](O)[C@H](O)[C@H]1O [Naringin Dihydrochalcone] ... 82.4
O=c1c(O)c(-c2ccc(O)c(O)c2)oc2cc(O)cc(O)c12 [Quercetin Dihydrate] ... 57
COc1ccc([C@@H]2CC(=O)c3c(O)cc(O[C@@H]4O[C@H](CO)[C@@H](O)[C@H](O)[C@H]4O[C@@H]4O[C@@H](C)[C@H](O)[C@@H](O)[C@H]4O)cc3O2)cc1O [Neohesperidin] ... 90.3
CN1CC[C@]23c4ccccc4N[C@H]1[C@]21CCN(C)[C@H]3Nc2ccccc21 [Calycanthine] ... 98.8
O=C([O-])C(O)Cc1ccc(O)c(O)c1.[Na+] (stereo not shown) [Sodium Danshensu] ... 90.3
COc1ccc([C@@H]2CC(=O)c3c(O)cc(O[C@@H]4O[C@H](CO[C@@H]5O[C@@H](C)[C@H](O)[C@@H](O)[C@H]5O)[C@@H](O)[C@H](O)[C@H]4O)cc3O2)cc1O [Hesperidin] ... 95.1
COc1cc(/C=C/C(=O)O)ccc1O [Ferulic Acid] ... 83.7
COc1ccc2cc3[n+](cc2c1OC)CCc1cc2c(cc1-3)OCO2.[Cl-] [Berberine HCl] ... 58.4
